Where these numbers come from: the RNAGym collection of RNA variant scans (doi:10.7554/elife.90254)

B1: LINE1-full (parent)
chain: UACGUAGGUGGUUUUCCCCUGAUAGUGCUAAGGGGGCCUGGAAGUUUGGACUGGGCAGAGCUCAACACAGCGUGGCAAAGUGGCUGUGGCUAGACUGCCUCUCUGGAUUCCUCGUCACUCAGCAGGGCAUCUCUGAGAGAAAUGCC

# Variants of: B1
# Assay Protocol: self-cleavage, relative activity (ratio to wild type); higher = more cleavage; in vitro, sequencing; the parent is a self-cleaving ribozyme
Experimental Readout: self-cleavage
Keep it simple and answer with nothing but the number.

Examples with their reported self-cleavage follow.
>>> df
   alteration  measured_number
0   U12C U47A             0.71
1  U62C A107G             0.06
2        U73G             1.29
3  U14C U102C             1.09
4  G88A U102A             0.04

For this variant ( U52A A140U ), measured self-cleavage is 1.57

For this variant ( U14C A64U ), measured self-cleavage is 0.46

For this variant ( A65U U73A ), measured self-cleavage is 0.18

For this variant ( U12C A67C ), measured self-cleavage is 0.09

For this variant ( U45A A124U ), measured self-cleavage is 1.39
